Source listed as PubChem BioAssay AID268.

system: CD2F1 mice, P1798 lymphosarcoma sc, tumor weight T/C; assay: NCI In Vivo Anticancer Drug Screen. Data for tumor model P1798 Lymphosarcoma (subcutaneous) in CD2F1 (CDF1) mice; settings: endpoint: mean tumor weight; dose: 25.0 mg/kg/injection; schedule: Q01DX010 (ip); vehicle: saline; higher = larger tumour
// T/C lookup, one value per entry

Give the value of T/C reported for the following: NCCCC(N)C(=O)NCCCCCCCCCCNC(=O)C(N)CCCN (stereo not given)
92 % of control

Give the value of T/C reported for the following: NCCCCC(N)C(=O)NCCCCCCNC(=O)CCCCC(=O)NCCCCCCNC(=O)C(N)CCCCN (stereo not given)
90 % of control

Give the value of T/C reported for the following: NCCCC(N)C(=O)NCCCCCCNCCCCCCNC(=O)C(N)CCCN (stereo not given)
62 % of control

Give the value of T/C reported for the following: OC(CBr)C(O)C(O)C(O)CBr (stereo not given)
62 % of control

Give the value of T/C reported for the following: O=C(NCCCCC(NC(=O)OCc1ccccc1)C(=O)NCCCCCCNCCCCCCNC(=O)C(CCCCNC(=O)OCc1ccccc1)NC(=O)OCc1ccccc1)OCc1ccccc1 (stereo not given)
66 % of control

Give the value of T/C reported for the following: CN(C)CCCN1c2ccccc2Sc2ccc(C(F)(F)F)cc21
19 % of control
